# tgt: T1, recombinant biotinylated CD71 extracellular domain (Sino Biologics) with an N-terminal 6His tag (human, UniProt P02786 89-760, biotinylated (sites not given))
# T1 construct: extracellular domain; also called hCD71; huCD71
# assay: screening ELISA, ratio
# Description: To screen for FN3 domains that specifically bind CD71, streptavidin-coated Maxisorp plates (Nunc catalog 436110) were blocked for 1 hour in Starting Block T20 (Pierce) and then coated with biotinylated CD71 (using same antigen as in panning) or negative controls (an unrelated Fc-fused recombinant protein and human serum albumin) for 1 hour. Plates were rinsed with TBST and diluted lysate was applied to plates for 1 hour. […]
measuredAttribute: huCD71/Fc

SEQ ID NO 54 (designed binder, FN3 domain) MLPAPKNLVVSRVTEDSARLSWTAPDAAFDSFQILYQENAFEGEAIVLTVPGSERSYDLTGLKPGTEYWVYIYGVKGGYPSVPLSAIFTT :: 1130
SEQ ID NO 34 (designed binder, FN3 domain) MLPAPKNLVVSRVTEDSARLSWTAPDAAFDSFAITYIEWWDVGEAIGLKVPGSERSYDLTGLKPGTEYRVHIQGVKGGNNSYPLDALFTT :: 12

A: SEQ ID NO 48 (designed binder, FN3 domain) MLPAPKNLVVSRVTEDSARLSWTAPDAAFDSFVIEYFEQFNLGEAIVLTVPGSERSYDLTGLKPGTEYWVGIYGVKGGWLSHPLSAIFTT
B: SEQ ID NO 40 (designed binder, FN3 domain) MLPAPKNLVVSRVTEDSARLSWTAPDAAFDSFVIEYWEYVGHGEAIVLTVPGSERSYDLTGLKPGTEYSVGIYGVKGGSLSRPLSAIFTT
Between A and B , which one has the lower reported huCD71/Fc value? Your choice should be expressed through its label. B
